target: Cytochrome P450 2C9 (Homo sapiens); assay: blockers of cytochrome P450 2C9 activity – biochemical, luminescence, ADME assay, primary screen (AID 777); conditions: CYP2C9 Supersomes, luciferin-H conversion, at 5 µM, hits give high values
Out of some 96,000 compounds screened, about 19,000 (20%) were called active. Only a sample is shown.
Classify as follows. Reported inhibition greater than or equal to 20%: MET. Reported inhibition below: NOT MET.

Say whether O=c1c2ccccc2nc2n1C(CSc1ccc(F)cc1)CN2 (centres undefined) shows inhibition of 20% or more.
NOT MET

Say whether "O=C(c1ccccn1)c1ncc(C(F)(F)F)cc1Cl" shows inhibition of 20% or more.
NOT MET

Say whether "CCCCN(C)Cc1c(C)[nH]c2ccc(Cl)cc2c1=O" shows inhibition of 20% or more.
NOT MET

Say whether "O/N=C1\CC2(Cc3nonc31)OCCO2" shows inhibition of 20% or more.
NOT MET

Say whether O=C(Nc1nnc(SCc2ccc(Cl)cc2Cl)s1)C1COc2ccccc2O1 (centres undefined) shows inhibition of 20% or more.
MET

Say whether "CCOC(=O)c1c(NC(=O)CSc2nnc(C)c(=O)[nH]2)sc2c1CCC2" shows inhibition of 20% or more.
MET

Say whether "CCOc1cccc(C(=O)Nc2nnc(-c3cccs3)s2)c1" shows inhibition of 20% or more.
NOT MET

Say whether "O=C(/C=C/NNC(=O)c1cccc(Br)c1)c1ccccc1" shows inhibition of 20% or more.
MET

Say whether "CCSc1nnc(NC(=O)Cc2ccccc2OC)s1" shows inhibition of 20% or more.
MET

Say whether O=C(Nc1nnc(SCc2c(Cl)cccc2Cl)s1)C1CCCO1 (centres undefined) shows inhibition of 20% or more.
NOT MET

Say whether "NC(=O)c1c(NC(=O)CSc2nnc(-c3ccco3)n2N)sc2c1CCCC2" shows inhibition of 20% or more.
MET

Say whether "CC(C)(O)C(=O)NN(C(=O)c1ccccc1)c1cccc(Br)c1" shows inhibition of 20% or more.
NOT MET

Say whether Cc1ccc(C2C(C#N)C(C#N)N3CCCN23)cc1 (centres undefined) shows inhibition of 20% or more.
NOT MET

Say whether "Cc1cc(N2CCN(Cc3ccc4c(c3)OCO4)CC2)n2ncnc2n1" shows inhibition of 20% or more.
NOT MET

Say whether C#CCN1C(=O)C(O)(CC(=O)c2cc(OC)ccc2OC)c2ccccc21 (centres undefined) shows inhibition of 20% or more.
MET

Say whether "CC(C)OCCCNc1ncnc2c1[nH]c1ccc(F)cc12" shows inhibition of 20% or more.
MET

Say whether "O=C(c1cccs1)N1CCN(Cc2ccc3c(c2)OCO3)CC1" shows inhibition of 20% or more.
MET

Say whether CCCNC(=O)C1CC(=O)N(c2ccc(OCC(=O)Nc3cccc(C)c3C)cc2)C1 (centres undefined) shows inhibition of 20% or more.
MET

Say whether Cc1ccc(NC(=O)NCC(c2cccnc2)N2CCOCC2)cc1 (centres undefined) shows inhibition of 20% or more.
NOT MET

Say whether "Fc1ccc2[nH]c3c(N4CCN(Cc5ccc6c(c5)OCO6)CC4)ncnc3c2c1" shows inhibition of 20% or more.
MET

Say whether "CCOC(=O)c1c(NC(=O)CSc2nnc(CN3CCOCC3)n2C)sc2c1CCCC2" shows inhibition of 20% or more.
MET

Say whether COC(=O)C(C)n1cnc2c(nnn2-c2cccc(Cl)c2)c1=O (centres undefined) shows inhibition of 20% or more.
NOT MET

Say whether C=CCN1C(=O)C(O)(CC(=O)c2ccc(Cl)cc2)c2ccccc21 (centres undefined) shows inhibition of 20% or more.
MET

Say whether O=C1NC(c2cc3c(cc2Cl)OCO3)Oc2ccccc21 (centres undefined) shows inhibition of 20% or more.
MET
